assay: logP by HPLC (EEC Directive 79/831 Annex V.A8, gradient method); format: physicochemical; conditions: pH 2; HPLC, acetonitrile/0.1% aqueous phosphoric acid
List of logP (pH 2) values.
endpoint: logP (pH 2)

{"columns": ["compound", "test.value"],
 "data": [
  ["FC(F)=CCCCCSc1nc(-c2ccccc2)cs1 [Example 4]", 5.38],
  ["FC(F)=C(F)CCCCSc1nc(Cl)c(C(F)(F)F)s1 [Example 10]", 5.40],
  ["FC(F)=C(F)CCCCSc1nc(Cl)c(Cl)s1 [Example 5]", 5.33],
  ["FC(F)=C(F)CCCCSc1nc(-c2ccccc2)c(-c2ccccc2)o1 [Example 7]", 5.96],
  ["FC(F)=CCCCCSc1nc(Cl)c(C(F)(F)F)s1 [Example 12]", 5.62],
  ["Cc1nc(SCCCCC(F)=C(F)F)sc1C [Example 11]", 4.20],
  ["FC(F)=CCCCCSc1nc(Cl)c(Cl)s1 [Example 6]", 5.53],
  ["FC(F)=CCCCCSc1nc(-c2ccccc2)c(-c2ccccc2)o1 [Example 8]", 6.14],
  ["Cc1csc(SCCCCC(F)=C(F)F)n1 [Example 9]", 3.85]
]}

====

List of chromatographic logP values.
experiment: logP by HPLC (EEC Directive 79/831 Annex V.A8, gradient method); assay type: physicochemical; conditions: pH 2.3; read-out: logP (pH 2.3)
endpoint: chromatographic logP

{"columns": ["molecule", "endpoint", "test.value"],
 "data": [
  ["[O-][S+](CCCCC(F)=C(F)F)c1nc(-c2ccccc2)cs1 (centres unmarked)", "chromatographic logP", 3.47],
  ["FC(F)=C(F)CCCCSc1nc(-c2ccccc2)cs1", "chromatographic logP", 5.21]
]}

Data provenance: patent US20040106658A1
